Molecular target: T1, recombinant human CD55 (Homo sapiens, UniProt P08174)
T1 construct: purchased R&D Systems 2009-CD/CF
T1 sequence (P08174 35-353): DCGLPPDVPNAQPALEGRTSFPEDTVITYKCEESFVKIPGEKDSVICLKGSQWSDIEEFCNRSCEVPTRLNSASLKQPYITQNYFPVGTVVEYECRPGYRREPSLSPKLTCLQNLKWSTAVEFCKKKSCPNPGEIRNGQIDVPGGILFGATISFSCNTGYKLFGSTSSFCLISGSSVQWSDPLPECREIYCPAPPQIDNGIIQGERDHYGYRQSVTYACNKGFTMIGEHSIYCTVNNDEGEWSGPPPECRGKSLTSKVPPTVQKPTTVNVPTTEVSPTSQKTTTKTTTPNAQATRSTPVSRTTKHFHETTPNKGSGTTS
Assay: Indirect ELISA, affinity for CD55
Assay type: binding
Conditions: full-length antibody 0.0001-10 nM on CD55 coated at 1 μg/mL
TEST READOUT: affinity for CD55 (indirect ELISA, absorbance at 450 nm)

molecule="EP-10H: anti-CD55 antibody different from G4-1H only at the H100A site (G to V), VL SEQ ID NO 4, VH SEQ ID NO 19 (antibody, V domains shown, EP-1E_VH; G4-1H_VL) VH: EVQLVESGGGLVQPGGSLRLSCAASGFTFSDRGMAWVRQAPGKGLEWVSGISSSGRYTYYAPAVKGRATISRDNSKNTLYLQMNSLRAEDTAVYYCAKNAVAGGWHAAYIDAWGQGTTVTVSS VL: SYELTQPPSVSVSPGQTASITCSGGGGSYGWYQQKPGQSPVTVIYWNDKRPSGIPERFSGSKSGNTATLTISGTQAMDEADYYCGGWDSSTYAIFGGGTKLTVL" test_result="comparable affinity"
molecule="EP-1E: anti-CD55 antibody screened from G4-1H random mutation library, VL SEQ ID NO 18, VH SEQ ID NO 19 (antibody, V domains shown, EP-1E_VH; EP-1E_VL) VH: EVQLVESGGGLVQPGGSLRLSCAASGFTFSDRGMAWVRQAPGKGLEWVSGISSSGRYTYYAPAVKGRATISRDNSKNTLYLQMNSLRAEDTAVYYCAKNAVAGGWHAAYIDAWGQGTTVTVSS VL: SYELTQPPSVSVSPGQTASITCSGGGGSYGWFQQKPGQSPVTVIYWNNKRPSGIPERFSGSKSGNTATLTISGTQAMDEADYYCGGWDSSTYAIFGGGTKLTVL" test_result="comparable affinity"
